Data origin, for the record: PubChem BioAssay

Assay: HepG2 cytotoxicity, primary screen, cytotoxicity control for P. falciparum antimalarial project, cell-based, ATP luminescence (AID 2303);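 note: 0% = DMSO wells and 100% = digitonin-killed cells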
Conditions: HepG2 viability, 24-48 h, at 10 µM, hits give high values
So basically: is inhibition under 30%? Then Met. Not under? Then Not met.

[ask] Item CC(C)(C)c1ccc(CN2CCC(NC(=O)c3ccc(-c4ccccc4Cl)s3)CC2)cc1 : inhibition beneath 30%, strictly?
[reply] Not met

[ask] Identify whether the compound Cn1nccc1C(=O)NCCNCc1ccc(-c2ccc(-c3nc4ccc(C(F)(F)F)cc4[nH]3)cc2)cc1 records inhibition below 30%.
[reply] Not met

[ask] hey, is inhibition for Oc1ccc(Cl)cc1CN1CCCC(COC(c2ccc(F)cc2)c2ccc(F)cc2)C1 (stereo not given) lower than 30% or not?
[reply] Met

[ask] Would you kindly verify if inhibition of O=c1cc(NCCCNCc2cc(Cl)cc(Cl)c2OCc2ccccc2)[nH]c2ccccc12 is strictly less than 30%?
[reply] Met

[ask] # check: inhibition < 30% for CN1CCCN(Cc2ccc(-c3cccc(NC(=O)c4ccc(F)cc4)c3)cc2)CC1
[reply] Met

* * *

Experiment: hESC survival regulators, cell-based (AID 493140);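 note: cells exposed to compounds for four days before counting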
Details: human embryonic stem cell survival screen; hits give high values
measured parameter: survival
Answer with a number only.

[ask] Consider the compound COc1c(C)c2c(c(O)c1C/C=C(\C)CCC(=O)O)C(=O)OC2 and give its measured survival.
[reply] 0.167

[ask] Requested field: survival. Item: Cc1ccc(N(CC2=NCCN2)c2cccc(O)c2)cc1
[reply] 15.2

[ask] I am curious: what survival value has been reported for CC1CC(OC(=O)c2ccccc2O)CC(C)(C)C1 (centres undefined) ?
[reply] 6

[ask] Returns the measured survival for the input compound. Input: CCC1NC(=O)c2cc(S(N)(=O)=O)c(Cl)cc2N1 (centres undefined)
[reply] 5.17

[ask] Which measured survival value corresponds to COc1cc2ccc(=O)oc2cc1O ?
[reply] 12.4

[ask] Tell me the measured survival of CC(=O)CC(c1ccc([N+](=O)[O-])cc1)c1c(O)c2ccccc2oc1=O (centres undefined) , please.
[reply] 21.3

[ask] Quick check: survival of CC(C(=O)O)c1ccc(C(=O)c2ccccc2)s1 (centres undefined) ?
[reply] 11.3

[ask] Given the entry CNCCc1ccccn1 , report its measured survival.
[reply] 9.67

[ask] Look at this compound and give its reported survival. NS(=O)(=O)c1cc(C(=O)O)cc(N2CCCC2)c1Oc1ccccc1
[reply] 11.5

[ask] Fill in: survival of CCCCc1cc2ccccc2c(OCCN(C)C)n1 is ___
[reply] 4.17

[ask] If you can, please state the reported survival value of CC(CCc1ccc(O)cc1)NCCc1ccc(O)c(O)c1 (centres undefined) .
[reply] 15.4

[ask] # get_value(readout='survival', item= O=C(OCCOCCO)c1ccccc1Nc1cccc(C(F)(F)F)c1 )
[reply] 2.08

[ask] For the compound CC(C)(C)c1ccc(C(O)CCCN2CCC(C(O)(c3ccccc3)c3ccccc3)CC2)cc1 (centres undefined) , what survival is on record?
[reply] 3.75

[ask] survival lookup needed for CCCCCCCCCCCCCCC[C@H](O)[C@@H](N)CO , thanks.
[reply] 80

[ask] Which survival value is on record for CC(C)[N+]1(C)C2CCC1CC(OC(=O)C(CO)c1ccccc1)C2 (centres undefined) ?
[reply] 16.6

[ask] Given the entry CC(=O)[C@H]1CC[C@H]2[C@@H]3C=CC4=CC(=O)CC[C@@]4(C)[C@@H]3CC[C@]12C , report its measured survival.
[reply] 6.67

[ask] Return reported survival; argument: CCC(C)(CN(C)C)OC(=O)c1ccccc1 (centres undefined)
[reply] 26.8

[ask] Need survival, item OC(CCCN1CCCCC1)(c1ccccc1)c1ccccc1
[reply] 12.2

[ask] survival for CN1C(=O)OC(C)(C)C1=O ?
[reply] 8.08

[ask] Name the recorded survival for Nc1ccc(S(=O)(=O)Nc2ncccn2)cc1 .
[reply] 31.2

[ask] Value lookup for survival; key = C[C@H](O)C(=O)Nc1c(I)c(C(=O)NC(CO)CO)c(I)c(C(=O)NC(CO)CO)c1I
[reply] 3.75

[ask] Please report the recorded survival for C1COC(NC(C2CC2)C2CC2)=N1 .
[reply] 19

[ask] GET /values?readout=survival&item= CC/C(=C(\c1ccccc1)c1ccc(OCCN(C)C)cc1)c1ccccc1
[reply] 6.5

[ask] Give the measured survival of CN(C)CCN(Cc1cccs1)c1ccccn1 .
[reply] 13.8

[ask] What survival value was documented for this compound, CCCNC(C)C(=O)Nc1c(C)csc1C(=O)OC (centres undefined) ?
[reply] 18.4

[ask] What value of survival has been reported for the following compound? CCN(CC)C(=O)c1ccc(O)c(OC)c1
[reply] 14.3

[ask] // query survival value for entry OC(CCN1CCCCC1)(c1ccccc1)C1CC2C=CC1C2 (centres undefined)
[reply] 9.67

[ask] Given the compound CC(C)NCC(O)COc1ccc(CC(N)=O)cc1 (centres undefined) , what is its reported survival?
[reply] 4.33

[ask] So what's the measured survival for this one? Clc1ccccc1CN1CCc2sccc2C1
[reply] 17.8

[ask] Would you mind telling me what survival value was observed for CCC(c1ccc(O)cc1)C(CC)c1ccc(O)cc1 (centres undefined) ?
[reply] 2.75

[ask] What value of survival has been recorded for this entry: CN1C(=O)CC[C@H]1c1cccnc1
[reply] 19.8

[ask] If you can, please state the reported survival value of CN1CCN(CCCN2c3ccccc3Sc3ccc(S(=O)(=O)N(C)C)cc32)CC1 .
[reply] 4.08

[ask] // lookup survival for N=c1nc(N2CCCCC2)cc(N)n1O
[reply] 23.2

[ask] Recorded survival of C[C@H]1[C@H]2CC[C@H]3[C@@H]4CC=C5C[C@@H](N(C)C)CC[C@]5(C)[C@H]4CC[C@]23CN1C , please.
[reply] 4.83

[ask] Name the reported survival value associated with the compound CC(=O)OCC(=O)[C@@]1(O)CC[C@H]2[C@@H]3CCC4=CC(=O)C=C[C@]4(C)[C@@]3(F)[C@@H](O)C[C@@]21C
[reply] 8

[ask] What does the record list as survival for COC(=O)[C@H]1[C@H]2C[C@H]3c4[nH]c5ccccc5c4CCN3C[C@H]2CC[C@@H]1O ?
[reply] 5.58

[ask] I'd like to know its survival. The compound in question is CN1CCCN(C(c2ccccc2)c2ccc(Cl)cc2)CC1 (centres undefined)
[reply] 4.08

[ask] Return reported survival; argument: COc1cc(Cc2cnc(N)nc2N)cc(OC)c1OC
[reply] 17.1

[ask] For the compound C#C[C@]1(OC(C)=O)CC[C@H]2[C@@H]3CCC4=C[C@@H](OC(C)=O)CC[C@@H]4[C@H]3CC[C@@]21C , what survival is on record?
[reply] 3.67

* * *

Target: 6-phosphogluconate dehydrogenase, decarboxylating (Homo sapiens)
Assay: 6PGD enzyme inhibitors, primary screen, biochemical, human, recombinant enzyme, NADPH absorbance (AID 1159550)
Details: recombinant 6PGD, NADPH absorbance 341 nm; at 10 µM; hits give high values
measured parameter: inhibition (%)
Write the number in % without appending the unit.

[ask] Need inhibition of NC(=O)c1ccc[n+]([C@@H]2O[C@H](COP(=O)([O-])OP(=O)(O)OC[C@H]3O[C@@H](n4cnc5c(N)ncnc54)[C@H](O)[C@@H]3O)[C@@H](O)[C@H]2O)c1 , thanks.
[reply] 10.6

[ask] Report inhibition for C[C@]12CC[C@@H]3c4ccc(O)cc4CC[C@H]3[C@@H]1CC[C@@H]2O please.
[reply] -7.69

[ask] Return reported inhibition; argument: CNCCC=C1c2ccccc2CCc2ccccc21
[reply] -10.4

[ask] Which inhibition value is on record for COc1c(CC(=O)c2cc3c(cc2O)OC(C)(C)C(O)C3)ccc2c1C=CC(C)(C)O2 (centres undefined) ?
[reply] 5.33

[ask] Returns the measured inhibition for the input compound. Input: NC(N)=NCCCCN=C(N)N
[reply] -2.55

[ask] Which inhibition value belongs to CC(=O)OC1C[C@@]2(C)[C@H](c3ccoc3)OC(=O)[C@H]3O[C@]32[C@@]2(C)C1[C@]1(C)C(C[C@H]2OC(C)=O)C(C)(C)[C@H](OC(C)=O)C[C@@H]1OC(C)=O (some centres undefined) ?
[reply] -3.59

[ask] Which inhibition is listed for COc1cc(O)c(C)c(O)c1 ?
[reply] 5.9

[ask] Entry CC1=CCCC(C)=CCC(C)(C)C=CC1 has what inhibition?
[reply] -0.753

[ask] # input compound: Cc1cc(O)c2c(c1)C(=O)c1cc(O)cc(O)c1C2=O ; wanted: its inhibition
[reply] 2.17

[ask] # get_value(readout='inhibition', item= CC(C)(C)CC(C)(C)c1ccc(OCCOCC[N+](C)(C)Cc2ccccc2)cc1 )
[reply] -3.07

[ask] Recorded inhibition for CC(=O)O[C@H]1C[C@@H](OC(C)=O)C(C)(C)C2CC(=O)[C@]3(C)C(CC[C@@]4(C)[C@H](c5ccoc5)OC(=O)[C@H]5O[C@]543)[C@]21C (some centres undefined) , please?
[reply] 6.24

[ask] Can you share its inhibition? I mean this compound: NC[C@H]1O[C@H](O[C@H]2[C@H](O[C@@H]3O[C@H](CO)[C@@H](O)[C@H]3O)[C@@H](O)[C@H](N)C[C@@H]2N)[C@H](N)[C@@H](O)[C@@H]1O
[reply] -2.01

[ask] Given the compound CC(C)NCC(O)COc1cccc2[nH]ccc12 (centres undefined) , what is its reported inhibition?
[reply] 11.4

[ask] Using the record for COC1C(OC(N)=O)C(O)C(Oc2ccc3c(O)c(NC(=O)c4ccc(O)c(CC=C(C)C)c4)c(=O)oc3c2C)OC1(C)C (centres undefined) , report its inhibition.
[reply] -15.7

[ask] Return reported inhibition; argument: Oc1ccc2c(c1)OC[C@H]1c3cc4c(cc3O[C@@H]21)OCO4
[reply] -3

[ask] Name the recorded inhibition for O=C(O)CCCN1C(=O)c2cccc3cccc(c23)C1=O .
[reply] -3.59

[ask] Which inhibition is reported for this compound? COC(=O)[C@H]1[C@H]2C[C@H]3c4[nH]c5ccccc5c4CCN3C[C@@H]2CC[C@@H]1O
[reply] 7.89

[ask] Which inhibition value is on record for Oc1cc(O)cc(/C=C/c2ccccc2)c1 ?
[reply] -1.17

[ask] Field request: inhibition | item: CN1C(CC(=O)c2ccccc2)CCCC1CC(O)c1ccccc1 (centres undefined)
[reply] -10.3
